test system: BDF1 mice, B16 melanoma ip, median survival T/C; assay: NCI In Vivo Anticancer Drug Screen. Data for tumor model B16 Melanoma (intraperitoneal) in B6D2F1 (BDF1) mice; settings: endpoint: median survival time; dose: 25.0 mg/kg/injection; schedule: Q01DX009 (ip); vehicle: other; higher = longer survival
Toxic doses and inconclusive results are not listed.
Recorded measurements of T/C, one per entry

Recorded T/C, per entry:
Request: Fill in the blank: the reported T/C of COc1cc(O)c2c(c1)C(=O)c1cc3c(c(O)c1C2=O)CC(OC)C(C)(O)C3=O (centres undefined) is ____.
Response: 104 % of control

Request: Fill in the blank: the reported T/C of `N#CSc1ccc(NN)cc1` is ____.
Response: 99 % of control

Request: Fill in the blank: the reported T/C of C=C1C(=O)OC2C1C(OC(=O)/C(C)=C/COC(C)=O)CC1(CO1)C1C(O)C=C(C)C21 (centres undefined) is ____.
Response: 104 % of control

---
Request: Fill in the blank: the reported T/C of `Cn1c2nc3ccccc3c-2nc2ccccc21` is ____.
Response: 97 % of control

----------
tested on: BDF1 mice, B16 melanoma ip, median survival T/C; assay: NCI In Vivo Anticancer Drug Screen. Data for tumor model B16 Melanoma (intraperitoneal) in B6D2F1 (BDF1) mice; conditions: endpoint: median survival time; dose: 100.0 mg/kg/injection; schedule: Q04DX003 (ip); vehicle: saline with Tween-80; higher = longer survival
Inconclusive results and toxic doses are left out.
Recorded measurements of T/C, one per entry

Recorded T/C, per entry:
Request: Fill in the blank: the reported T/C of `CCCC(=O)OCc1ccc(Cl)c(Cl)c1` is ____.
Response: 123 % of control

Request: Fill in the blank: the reported T/C of `Cc1ccc(NC(=O)c2ccccc2)c(C)c1` is ____.
Response: 100 % of control

Request: Fill in the blank: the reported T/C of CCOC(=O)C(Cc1ccccc1)P(=O)(OCC)OCC (configuration not stated) is ____.
Response: 95 % of control

---
Request: Fill in the blank: the reported T/C of `O=C(NO)N/N=C/c1ccc(/C=N/NC(=O)NO)cc1` is ____.
Response: 100 % of control

Request: Fill in the blank: the reported T/C of `Cc1sc2ccc(Cl)cc2[n+]1CCC(=O)O` is ____.
Response: 105 % of control

Request: Fill in the blank: the reported T/C of `CCCCN(CCCC)CCNc1ccc(Cl)c2oc3cc(C)ccc3c(=O)c12` is ____.
Response: 86 % of control

Request: Fill in the blank: the reported T/C of CC12NC(=O)NC1(C)NC(=O)N2 (configuration not stated) is ____.
Response: 100 % of control

Request: Fill in the blank: the reported T/C of `COc1ccc(Cl)cc1NC(=O)c1ccc(Cl)cc1Cl` is ____.
Response: 100 % of control

Request: Fill in the blank: the reported T/C of `C[C@]12CC[C@H](OC(=O)Cc3ccc(N(CCCl)CCCl)cc3)CC1=CC[C@@H]1[C@@H]2CC[C@]2(C)C(=O)CC[C@@H]12` is ____.
Response: 115 % of control

Request: Fill in the blank: the reported T/C of `O=C(COc1ccccc1)CC(O)(C(F)(F)F)C(F)(F)F` is ____.
Response: 100 % of control

Request: Fill in the blank: the reported T/C of COc1ccc(C(=O)C(C)Br)c(OCc2ccccc2)c1OC (configuration not stated) is ____.
Response: 94 % of control

Request: Fill in the blank: the reported T/C of CCCCC(CC)COP(OCC(CC)CCCC)OCC(CC)CCCC (configuration not stated) is ____.
Response: 93 % of control
